# system_name: Human 5-HT6 Receptor (Homo sapiens, UniProt P50406)
# Construct: expressed in transfected cells; host or cells: HEK293
# Sequence (P50406 whole entry): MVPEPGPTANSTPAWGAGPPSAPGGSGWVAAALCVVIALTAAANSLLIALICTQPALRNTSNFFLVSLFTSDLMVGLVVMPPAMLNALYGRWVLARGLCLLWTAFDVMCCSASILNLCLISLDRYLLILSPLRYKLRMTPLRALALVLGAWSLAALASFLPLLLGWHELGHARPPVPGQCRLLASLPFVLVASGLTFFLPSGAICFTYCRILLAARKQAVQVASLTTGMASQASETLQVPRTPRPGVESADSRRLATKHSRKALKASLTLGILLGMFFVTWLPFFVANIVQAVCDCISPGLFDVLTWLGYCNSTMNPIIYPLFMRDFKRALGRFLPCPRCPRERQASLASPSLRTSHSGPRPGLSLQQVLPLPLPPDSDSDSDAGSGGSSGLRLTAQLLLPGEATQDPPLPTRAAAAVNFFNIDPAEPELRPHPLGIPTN
# assay_summary: Binding assay for human 5-HT6 receptor ([3H]LSD radioligand)
# reported_conditions: human recombinant receptor in HEK293 cells, [3H]LSD 1.5 nM, 60 minutes at 37° C.; read-out: Radio-ligand binding data at 5-HT6 (h) Ki
pKi: −log10 of the molar value.
pKi by entry:
measure_name: pKi

{"columns": ["compound", "system_name", "measured_value"],
 "data": [
  ["CC(C)c1ccc(S(=O)(=O)n2ccc3cc(CN4CCNCC4)ccc32)cc1.Cl.Cl [Compound 34, dihydrochloride]", "Human 5-HT6 Receptor (Homo sapiens, UniProt P50406)", 7.83],
  ["CCN1CCN(Cc2ccc3c(ccn3S(=O)(=O)c3cccc(Cl)c3Cl)c2)CC1.Cl.Cl [Compound 14, dihydrochloride]", "Human 5-HT6 Receptor (Homo sapiens, UniProt P50406)", 8.26],
  ["CCN1CCN(Cc2ccc3c(ccn3S(=O)(=O)c3ccc(F)cc3F)c2)CC1.Cl.Cl [Compound 10, dihydrochloride]", "Human 5-HT6 Receptor (Homo sapiens, UniProt P50406)", 7.91],
  ["CN1CCN(Cc2ccc3c(c2)c(Cl)cn3S(=O)(=O)c2ccc(F)cc2F)CC1.Cl.Cl [Compound 26, dihydrochloride]", "Human 5-HT6 Receptor (Homo sapiens, UniProt P50406)", 8.47]
]}
